Molecular target: T1, polo-box domain (PBD) of polo-like kinase 3 (PLK3) (UniProt Q9H4B4 335-646, limits assumed)
T1 construct: domain: polo-box domain (PBD); also called PLK3 PBD; PBD of PLK3
T1 sequence (looked up): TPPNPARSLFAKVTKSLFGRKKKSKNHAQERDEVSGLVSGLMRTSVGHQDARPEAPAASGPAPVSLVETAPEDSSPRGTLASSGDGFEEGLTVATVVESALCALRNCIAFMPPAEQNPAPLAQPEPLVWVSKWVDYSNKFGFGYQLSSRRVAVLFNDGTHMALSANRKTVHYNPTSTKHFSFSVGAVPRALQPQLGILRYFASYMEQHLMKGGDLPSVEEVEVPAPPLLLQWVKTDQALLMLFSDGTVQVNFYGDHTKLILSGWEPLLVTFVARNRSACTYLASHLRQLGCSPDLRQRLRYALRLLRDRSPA
Experiment: fluorescence polarization titration of tracer with PLK3 PBD
Method: According to the assay, binding of a fluorescent tracer peptide to a protein increased polarization of the emitted fluorescence. […] The ability of test molecules to bind to the PBD was quantitated by a reduction in mP values that occurred as the tracer was displaced from the PBD, and plotted to calculate as an IC₅₀ value. The binding of fluorescein-labelled tracer peptides used for both assays was determined to see if there was a difference in affinity for their respective PBD. […]
Square brackets hold non-standard residues; d marks the D form. Ends that are not written are not given here. pT = C[C@@H](OP(=O)(O)O)[C@H](N)C(=O)O
readout.kind: pKd
Expect pKd as a plain number equal to -log10 of the molar concentration.

pKd reported for this binder GPLATS[pT]PKNG (also: fluorescein-labelled, site not given here, also called PLK3 tracer; fluorescein-labelled tracer for the PLK3 PBD) [PLK3 binding tracer (fluorescein-labelled SEQ ID NO: 7)] : 7.57
